test system: blood coagulation; assay: PT and aPTT assay in cynomolgus monkeys (Example 45); assay type: in vivo; conditions: day 8; escalating dose regimen; platelet poor plasma
Quantity measured: aPTT ratio (INR)

| Substance | Reported |
| --- | --- |
| ISIS 416850: MOE gapmer, nucleobases 1275 to 1318 of SEQ ID NO: 1 (Table 8) (antisense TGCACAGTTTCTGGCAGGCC; MOE gapmer, wing and gap sizes not given here) | 1.05 |
| ISIS 416858: MOE gapmer, nucleobases 1275 to 1318 of SEQ ID NO: 1 (Table 8) (antisense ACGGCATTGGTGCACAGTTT; MOE gapmer, wing and gap sizes not given here) | 1.03 |
| ISIS 416838: MOE gapmer, nucleobases 1018 to 1042 of SEQ ID NO: 1 (Table 6) (antisense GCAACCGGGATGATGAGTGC; MOE gapmer, wing and gap sizes not given here) | 1.07 |
| ISIS 416864: MOE gapmer, nucleobases 1275 to 1318 of SEQ ID NO: 1 (Table 8) (antisense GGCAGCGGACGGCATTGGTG; MOE gapmer, wing and gap sizes not given here) | 1.05 |
| ISIS 417002: MOE gapmer, nucleobases 1275 to 1318 of SEQ ID NO: 1 (Table 8) (antisense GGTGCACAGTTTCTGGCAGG; MOE gapmer, wing and gap sizes not given here) | 1.05 |

* * *

Assay: Liver function, ALT, AST, bilirubin in cynomolgus monkeys (Example 45)
Type: in vivo
Details: plasma; day 22; escalating dose regimen
Procedure: Groups, each consisting of two male and three female monkeys, were injected subcutaneously with ISIS 416838, ISIS 416850, ISIS 416858, ISIS 416864, or ISIS 417002 in escalating doses. […] Body weights were measured weekly. […]
# reported ALT; entries follow

| Substance | U | ALT |
| --- | --- | --- |
| ISIS 416838: MOE gapmer, nucleobases 1018 to 1042 of SEQ ID NO: 1 (Table 6) (antisense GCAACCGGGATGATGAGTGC; MOE gapmer, wing and gap sizes not given here) | IU/L | 36 |
| ISIS 416850: MOE gapmer, nucleobases 1275 to 1318 of SEQ ID NO: 1 (Table 8) (antisense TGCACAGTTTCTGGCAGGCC; MOE gapmer, wing and gap sizes not given here) | IU/L | 41 |
| ISIS 416858: MOE gapmer, nucleobases 1275 to 1318 of SEQ ID NO: 1 (Table 8) (antisense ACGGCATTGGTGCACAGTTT; MOE gapmer, wing and gap sizes not given here) | IU/L | 28 |
| ISIS 416864: MOE gapmer, nucleobases 1275 to 1318 of SEQ ID NO: 1 (Table 8) (antisense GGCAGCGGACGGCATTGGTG; MOE gapmer, wing and gap sizes not given here) | IU/L | 37 |
| ISIS 417002: MOE gapmer, nucleobases 1275 to 1318 of SEQ ID NO: 1 (Table 8) (antisense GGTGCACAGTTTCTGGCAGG; MOE gapmer, wing and gap sizes not given here) | IU/L | 36 |

* * *

Assay: Liver function, ALT, AST, bilirubin in cynomolgus monkeys (Example 46)
Format: in vivo
Conditions: Day −5; plasma
Procedure: Groups, each consisting of two male and two female monkeys, were injected subcutaneously with 25 mg/kg of ISIS 416850, ISIS 449709, ISIS 445522, ISIS 449710, ISIS 449707, ISIS 449711, ISIS 449708, 416858, and ISIS 445531. […] Body weights were taken 14 days and 7 days before the start of treatment and were then measured weekly throughout the treatment period. […]
Strand notation (5' to 3'): a small letter for the sugar, then the base; units joined by * are phosphorothioate-linked, units joined directly phosphodiester-linked; [ ] holds rarer units or linkages, { } end groups; capitals alone tell only the bases. e = 2'-O-(2-methoxyethyl) (MOE); [5mC] = 5-methylcytosine; d = 2'-deoxy (DNA)
# reported AST; entries follow

| Substance | U | AST |
| --- | --- | --- |
| ISIS 416850: MOE gapmer, nucleobases 1275 to 1318 of SEQ ID NO: 1 (Table 8) (antisense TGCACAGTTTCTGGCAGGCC; MOE gapmer, wing and gap sizes not given here) | IU/L | 45 |
| ISIS 416858: MOE gapmer, nucleobases 1275 to 1318 of SEQ ID NO: 1 (Table 8) (antisense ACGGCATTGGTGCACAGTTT; MOE gapmer, wing and gap sizes not given here) | IU/L | 100 |
| ISIS 445531: 5-8-5 or 6-8-6 MOE microwalk gapmer (Table 44) (antisense eG*eG*e[5mC]*eA*eT*dT*dG*dG*dT*dG*d[5mC]*dA*d[5mC]*eA*eG*eT*eT*eT) | IU/L | 46 |
| ISIS 449708: 3-8-3, 4-8-4, 2-10-2, 3-10-3 or 4-10-4 MOE microwalk gapmer (Table 46) (antisense eA*e[5mC]*eA*dG*dT*dT*dT*d[5mC]*dT*dG*dG*e[5mC]*eA*eG) | IU/L | 53 |
| ISIS 449709: 3-8-3, 4-8-4, 2-10-2, 3-10-3 or 4-10-4 MOE microwalk gapmer (Table 46) (antisense eG*e[5mC]*eA*e[5mC]*dA*dG*dT*dT*dT*d[5mC]*dT*dG*dG*d[5mC]*eA*eG*eG*e[5mC]) | IU/L | 51 |

Where do the numbers come from? From patent US20230263822A1.
